assay: Percentage unbound in human plasma at 10 uM after 5 hrs by equilibrium dialysis
Format: ADME, cell-free
property: fraction unbound at 5 h, 10 µM
Returns: the value as a bare number; no unit string appended.

What does the record list as fraction unbound at 5 h, 10 µM for O=C(c1ccc(F)c(F)c1N[14c]1[14cH][14cH][14c](I)[14cH][14c]1F)N1CC(O)([C@@H]2CCCCN2)C1 ?
0.058

###

assay: AUC (infinity) in Sprague-Dawley rat at 3 mg/kg, po by LC-MS/MS analysis
Assay type: ADME, organism-based
Parameters: time infinity, dose 3 mg/kg, route oral
statedConditions: plasma
property: AUC(0-inf)
In your response, put the unit directly after the numeric value.

What does the record list as AUC(0-inf) for O=C(c1ccc(F)c(F)c1Nc1ccc(I)cc1F)N1CC(O)([C@@H]2CCCCN2)C1 [COBIMETINIB] ?
1590 ng·h/mL

###

assay: Volume of distribution at steady state in Sprague-Dawley rat at 3 mg/kg, iv by LC-MS/MS analysis
Format: ADME, organism-based
Set-up: dose 3 mg/kg, route intravenous
statedConditions: in vivo, read-out: Vdss
property: Vd (L/kg)
Write the number in L/kg without appending the unit.

What does the record list as Vd for O=C(c1ccc(F)c(F)c1Nc1ccc(I)cc1F)N1CC(O)([C@@H]2CCCCN2)C1 ?
34.6

###

Test system: MDR1
assay: Apparent permeability from basolateral to apical side of MDCK1 cells expressing MDR1 at 25 uM after 2 hrs by LC-MS/MS analysis
Assay type: ADME, cell-based, Canis lupus familiaris
statedConditions: dog, MDCK-MDR1
property: Papp B→A at 2 h, 25 µM (×10⁻⁶ cm/s)
Write the number in ×10⁻⁶ cm/s without appending the unit.

What does the record list as Papp B→A at 2 h, 25 µM for O=C(c1ccc(F)c(F)c1Nc1ccc(I)cc1F)N1CC(O)([C@@H]2CCCCN2)C1 ?
35.4

###

assay: Ratio of drug level in blood to plasma in Sprague-Dawley rat at 5 uM after 30 mins
Assay type: ADME
property: blood plasma ratio at 0.5 h, 5 µM
Returns: the value as a bare number; no unit string appended.

What does the record list as blood plasma ratio at 0.5 h, 5 µM for O=C(c1ccc(F)c(F)c1N[14c]1[14cH][14cH][14c](I)[14cH][14c]1F)N1CC(O)([C@@H]2CCCCN2)C1 ?
1.37

###

assay: Ratio of drug level in blood to plasma in cynomolgus monkey at 10 uM after 30 mins
Assay type: ADME, Macaca fascicularis
property: blood plasma ratio at 0.5 h, 10 µM
Returns: the value as a bare number; no unit string appended.

What does the record list as blood plasma ratio at 0.5 h, 10 µM for O=C(c1ccc(F)c(F)c1N[14c]1[14cH][14cH][14c](I)[14cH][14c]1F)N1CC(O)([C@@H]2CCCCN2)C1 ?
1.82

###

assay: Tmax in nu/nu mouse at 3 mg/kg, po by LC-MS/MS analysis
Format: ADME, organism-based
Design: dose 3 mg/kg, route oral
statedConditions: in vivo
property: Tmax
In your response, put the unit directly after the numeric value.

What does the record list as Tmax for O=C(c1ccc(F)c(F)c1Nc1ccc(I)cc1F)N1CC(O)([C@@H]2CCCCN2)C1 ?
15 min

###

assay: Ratio of unbound drug level in brain to plasma in mouse at 3 mg/kg after 2 hrs
Assay type: ADME, organism-based
Design: dose 3 mg/kg
statedConditions: read-out: BPR
property: Kp uu at 2 h
Returns: the value as a bare number; no unit string appended.

What does the record list as Kp uu at 2 h for O=C(c1ccc(F)c(F)c1Nc1ccc(I)cc1F)N1CC(O)([C@@H]2CCCCN2)C1 [COBIMETINIB] ?
0.018

###

assay: Volume of distribution at steady state in Beagle dog at 3 mg/kg, iv by LC-MS/MS analysis
Type: ADME, organism-based, Canis lupus familiaris
Design: dose 3 mg/kg, route intravenous
statedConditions: in vivo, read-out: Vdss
property: Vd (L/kg)
Write the number in L/kg without appending the unit.

What does the record list as Vd for O=C(c1ccc(F)c(F)c1Nc1ccc(I)cc1F)N1CC(O)([C@@H]2CCCCN2)C1 ?
3.99

###

assay: AUC (infinity) in nu/nu mouse at 3 mg/kg, po by LC-MS/MS analysis
Assay type: ADME, organism-based
Set-up: time infinity, dose 3 mg/kg, route oral
statedConditions: plasma
property: AUC(0-inf) (ng·h/mL)
Write the number in ng·h/mL without appending the unit.

What does the record list as AUC(0-inf) for O=C(c1ccc(F)c(F)c1Nc1ccc(I)cc1F)N1CC(O)([C@@H]2CCCCN2)C1 ?
1510

###

assay: Efflux ratio of permeability from […] side in MDCK1 cells at 10 uM after 60 mins
Format: ADME, cell-based, Canis lupus familiaris
statedConditions: dog, MDCK
property: efflux ratio at 1 h, 10 µM
Returns: the value as a bare number; no unit string appended.

What does the record list as efflux ratio at 1 h, 10 µM for O=C(c1ccc(F)c(F)c1Nc1ccc(I)cc1F)N1CC(O)([C@@H]2CCCCN2)C1 [COBIMETINIB] ?
3

###

assay: Plasma clearance in Beagle dog at 3 mg/kg, iv by LC-MS/MS analysis
Type: ADME, organism-based, Canis lupus familiaris
Design: dose 3 mg/kg, route intravenous
property: clearance (mL/min/kg)
Write the number in mL/min/kg without appending the unit.

What does the record list as clearance for O=C(c1ccc(F)c(F)c1Nc1ccc(I)cc1F)N1CC(O)([C@@H]2CCCCN2)C1 ?
5.53

###

assay: Oral bioavailability in nu/nu mouse at 3 mg/kg by LC-MS/MS analysis
Format: ADME, organism-based
statedConditions: in vivo
property: bioavailability (%)
Write the number in % without appending the unit.

What does the record list as bioavailability for O=C(c1ccc(F)c(F)c1Nc1ccc(I)cc1F)N1CC(O)([C@@H]2CCCCN2)C1 ?
53.9

###

assay: Percentage unbound in mouse plasma at 5 uM after 5 hrs by equilibrium dialysis
Type: ADME, cell-free
property: fraction unbound at 5 h, 5 µM

What does the record list as fraction unbound at 5 h, 5 µM for O=C(c1ccc(F)c(F)c1N[14c]1[14cH][14cH][14c](I)[14cH][14c]1F)N1CC(O)([C@@H]2CCCCN2)C1 ?
0.034

###

assay: Ratio of drug level in blood to plasma in beagle dog at 1 uM after 30 mins
Assay type: ADME, Canis lupus familiaris
property: blood plasma ratio at 0.5 h, 1 µM

What does the record list as blood plasma ratio at 0.5 h, 1 µM for O=C(c1ccc(F)c(F)c1N[14c]1[14cH][14cH][14c](I)[14cH][14c]1F)N1CC(O)([C@@H]2CCCCN2)C1 ?
0.632
